biological target: A/H3N2 influenza NA (Influenza A virus (H3N2), UniProt Q91IQ5); type: biochemical, A/H3N2 influenza virus (clinical isolate from Hong Kong); conditions: 10 µM
outcome measure: Inhibitory rate against A/H3N2 influenza NA (%)
Give just the numeric value; % need not be written.

IN: Value wanted: Inhibitory rate against A/H3N2 influenza NA (A/H3N2 influenza NA (Influenza A virus (H3N2), UniProt Q91IQ5)) of entry CCC(CC)O[C@@H]1C=C(C(=O)O)C[C@H](NC(=O)c2cc(-c3ccc(Cl)cc3)nn2CC2CCCCC2)[C@H]1NC(C)=O [Compound 16c]
OUT: 48.50

IN: State its Inhibitory rate against A/H3N2 influenza NA on A/H3N2 influenza NA (Influenza A virus (H3N2), UniProt Q91IQ5): CCC(CC)O[C@@H]1C=C(C(=O)O)C[C@H](NC(=O)c2cnn(Cc3ccc(OC)cc3)c2)[C@H]1NC(C)=O [Compound 6f]
OUT: 26.79

IN: A/H3N2 influenza NA (Influenza A virus (H3N2), UniProt Q91IQ5) / Inhibitory rate against A/H3N2 influenza NA / CCC(CC)O[C@@H]1C=C(C(=O)O)C[C@H](NC(=O)c2cc(C3CC3)n(-c3cccc(C)c3)n2)[C@H]1NC(C)=O [Compound 24c] : value?
OUT: 34.75

IN: Return Inhibitory rate against A/H3N2 influenza NA measured with A/H3N2 influenza NA (Influenza A virus (H3N2), UniProt Q91IQ5) given this compound: CCC(CC)O[C@@H]1C=C(C(=O)O)C[C@H](NC(=O)c2cc(C3CC3)nn2-c2ccccc2C)[C@H]1NC(C)=O [Compound 26b]
OUT: 72.80

IN: Lab request: please report Inhibitory rate against A/H3N2 influenza NA under test system A/H3N2 influenza NA (Influenza A virus (H3N2), UniProt Q91IQ5) for CCC(CC)O[C@@H]1C=C(C(=O)O)C[C@H](NC(=O)c2cnn(-c3ccc(OC)cc3)c2)[C@H]1NC(C)=O [Compound 6j]
OUT: 34.15

IN: API: value(readout=Inhibitory rate against A/H3N2 influenza NA, system=A/H3N2 influenza NA (Influenza A virus (H3N2), UniProt Q91IQ5)) for record CCC(CC)O[C@@H]1C=C(C(=O)O)C[C@H](NC(=O)c2cc(-c3ccc(Cl)cc3)n[nH]2)[C@H]1NC(C)=O [Compound 12b]
OUT: 50.43

IN: What Inhibitory rate against A/H3N2 influenza NA appears in the records for this compound with A/H3N2 influenza NA (Influenza A virus (H3N2), UniProt Q91IQ5)? CCC(CC)O[C@@H]1C=C(C(=O)O)C[C@H](NC(=O)c2cc(C3CC3)n(-c3ccc(C(F)(F)F)cc3)n2)[C@H]1NC(C)=O [Compound 24e]
OUT: 44.47

IN: Form: Entry = CCC(CC)O[C@@H]1C=C(C(=O)O)C[C@H](NC(=O)c2cc(-c3ccccc3)n[nH]2)[C@H]1NC(C)=O [Compound 12a] | System = A/H3N2 influenza NA (Influenza A virus (H3N2), UniProt Q91IQ5) | Inhibitory rate against A/H3N2 influenza NA = ____
OUT: 42.81

IN: Provide value of Inhibitory rate against A/H3N2 influenza NA for this record tested with A/H3N2 influenza NA (Influenza A virus (H3N2), UniProt Q91IQ5): CCC(CC)O[C@@H]1C=C(C(=O)O)C[C@H](NC(=O)c2cc(C3CC3)n(-c3ccccc3)n2)[C@H]1NC(C)=O [Compound 24a]
OUT: 30.57

IN: Observed Inhibitory rate against A/H3N2 influenza NA on A/H3N2 influenza NA (Influenza A virus (H3N2), UniProt Q91IQ5) for CCC(CC)O[C@@H]1C=C(C(=O)O)C[C@H](NC(=O)c2cnn(Cc3ccc(C(F)(F)F)cc3)c2)[C@H]1NC(C)=O [Compound 6g] , please.
OUT: 21.72

IN: Tell me reported Inhibitory rate against A/H3N2 influenza NA for CCC(CC)O[C@@H]1C=C(C(=O)O)C[C@H](NC(=O)c2cnn(Cc3cccc([N+](=O)[O-])c3)c2)[C@H]1NC(C)=O [Compound 6d] , tested with A/H3N2 influenza NA (Influenza A virus (H3N2), UniProt Q91IQ5).
OUT: 12.26

IN: Param readout= Inhibitory rate against A/H3N2 influenza NA; system= A/H3N2 influenza NA (Influenza A virus (H3N2), UniProt Q91IQ5); entry= CCC(CC)O[C@@H]1C=C(C(=O)O)C[C@H](N)[C@H]1NC(C)=O [OC, oseltamivir carboxylate, reference compound] ; returns value.
OUT: 97.46

IN: Form entry - test system: A/H3N2 influenza NA (Influenza A virus (H3N2), UniProt Q91IQ5); read-out: Inhibitory rate against A/H3N2 influenza NA; compound: CCC(CC)O[C@@H]1C=C(C(=O)O)C[C@H](NC(=O)c2cnn(-c3ccccc3C)c2)[C@H]1NC(C)=O [Compound 6h]
OUT: 38.37

IN: Lookup: Inhibitory rate against A/H3N2 influenza NA / A/H3N2 influenza NA (Influenza A virus (H3N2), UniProt Q91IQ5) / CCC(CC)O[C@@H]1C=C(C(=O)O)C[C@H](NC(=O)c2cc(C3CC3)n(-c3ccc(Br)cc3)n2)[C@H]1NC(C)=O [Compound 24d]
OUT: 42.68

IN: Given the entry CCC(CC)O[C@@H]1C=C(C(=O)O)C[C@H](NC(=O)c2cc(-c3cccs3)n[nH]2)[C@H]1NC(C)=O [Compound 12f] , what Inhibitory rate against A/H3N2 influenza NA was observed with A/H3N2 influenza NA (Influenza A virus (H3N2), UniProt Q91IQ5)?
OUT: 40.02

IN: // fetch A/H3N2 influenza NA (Influenza A virus (H3N2), UniProt Q91IQ5) Inhibitory rate against A/H3N2 influenza NA for CCC(CC)O[C@@H]1C=C(C(=O)O)C[C@H](NC(=O)c2cc(-c3ccc(Cl)cc3)nn2CC2CC2)[C@H]1NC(C)=O [Compound 16a]
OUT: 31.50

IN: Find Inhibitory rate against A/H3N2 influenza NA (A/H3N2 influenza NA (Influenza A virus (H3N2), UniProt Q91IQ5)) for the entry CCC(CC)O[C@@H]1C=C(C(=O)O)C[C@H](NC(=O)c2cc(C3CC3)nn2-c2ccc(Br)cc2)[C@H]1NC(C)=O [Compound 26d]
OUT: 37.17

IN: Could you share what Inhibitory rate against A/H3N2 influenza NA was measured for CCC(CC)O[C@@H]1C=C(C(=O)O)C[C@H](NC(=O)c2cnn(Cc3cccc(OC)c3)c2)[C@H]1NC(C)=O [Compound 6e] , tested on A/H3N2 influenza NA (Influenza A virus (H3N2), UniProt Q91IQ5)?
OUT: 23.37

IN: API: value(readout=Inhibitory rate against A/H3N2 influenza NA, system=A/H3N2 influenza NA (Influenza A virus (H3N2), UniProt Q91IQ5)) for record CCC(CC)O[C@@H]1C=C(C(=O)O)C[C@H](NC(=O)c2cc(-c3ccc(OC)cc3)n[nH]2)[C@H]1NC(C)=O [Compound 12e]
OUT: 42.02

IN: Please tell me: Inhibitory rate against A/H3N2 influenza NA of CCC(CC)O[C@@H]1C=C(C(=O)O)C[C@H](NC(=O)c2cnn(Cc3cccc(Cl)c3)c2)[C@H]1NC(C)=O [Compound 6c] , system A/H3N2 influenza NA (Influenza A virus (H3N2), UniProt Q91IQ5)?
OUT: 23.88

IN: Value wanted: Inhibitory rate against A/H3N2 influenza NA (A/H3N2 influenza NA (Influenza A virus (H3N2), UniProt Q91IQ5)) of entry CCC(CC)O[C@@H]1C=C(C(=O)O)C[C@H](NC(=O)c2cnn(-c3ccc(C)cc3)c2)[C@H]1NC(C)=O [Compound 6i]
OUT: 52.31

IN: Give the reported Inhibitory rate against A/H3N2 influenza NA for CCC(CC)O[C@@H]1C=C(C(=O)O)C[C@H](NC(=O)c2cnn(Cc3ccccc3Cl)c2)[C@H]1NC(C)=O [Compound 6b] (system: A/H3N2 influenza NA (Influenza A virus (H3N2), UniProt Q91IQ5)).
OUT: 18.88

IN: Missing value: Inhibitory rate against A/H3N2 influenza NA, A/H3N2 influenza NA (Influenza A virus (H3N2), UniProt Q91IQ5), entry CCC(CC)O[C@@H]1C=C(C(=O)O)C[C@H](NC(=O)c2cc(-c3ccc(F)cc3)n[nH]2)[C@H]1NC(C)=O [Compound 12c] . Fill in?
OUT: 56.45

IN: Provide value of Inhibitory rate against A/H3N2 influenza NA for this record tested with A/H3N2 influenza NA (Influenza A virus (H3N2), UniProt Q91IQ5): CCC(CC)O[C@@H]1C=C(C(=O)O)C[C@H](NC(=O)c2cc(C3CC3)nn2-c2cccc(C)c2)[C@H]1NC(C)=O [Compound 26c]
OUT: 31.53

IN: # returns recorded Inhibitory rate against A/H3N2 influenza NA (system: A/H3N2 influenza NA (Influenza A virus (H3N2), UniProt Q91IQ5)) for CCC(CC)O[C@@H]1C=C(C(=O)O)C[C@H](NC(=O)c2cnn(Cc3ccccc3)c2)[C@H]1NC(C)=O [Compound 6a]
OUT: 32.02

IN: Short answer please: Inhibitory rate against A/H3N2 influenza NA, A/H3N2 influenza NA (Influenza A virus (H3N2), UniProt Q91IQ5), entry CCC(CC)O[C@@H]1C=C(C(=O)O)C[C@H](NC(=O)c2cc(C3CC3)n(-c3ccccc3C)n2)[C@H]1NC(C)=O [Compound 24b]
OUT: 60.91

Source of measurements: paper PMC8073777
